System: PPARg homodimer (NR concentration 180 nM)
EXPERIMENT: PBM binding z-score (relative to random genomic background probes); higher = stronger binding; sequences stand for … in GC…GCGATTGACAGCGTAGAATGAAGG
EXPERIMENTAL READOUT: PBM binding z-score
Answers are plain numbers.

TCCAGTTGGTCACGGAGGTCACACACGACGGGTA 2.63
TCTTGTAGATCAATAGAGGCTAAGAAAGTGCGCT 0.0391
ATCTCTAGGTAAAGATAGTTCAGTGACTGCAAAT 0.972
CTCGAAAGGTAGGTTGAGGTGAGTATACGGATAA 0.0947
CGCACTAGGTCAGAACAGGACAGTGAAGGATGAT 1.4

In the following, a different sequence is considered.
Tell me measured PBM binding z-score for `TCTCGGAAGACACGAAGGTCAGAGCTTTCCAGAG` please.
0.689

###

Test system: PPARg:RXRa DBDmut IVT, anti-RXR (DBD mutation: RXRa K156A/R161A, NR concentration 270 nM, RXRa partner concentration 90 nM)
EXPERIMENT: PBM binding z-score (relative to random genomic background probes); higher = stronger binding; sequences stand for … in GC…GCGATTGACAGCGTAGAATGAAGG
EXPERIMENTAL READOUT: PBM binding z-score
Give bare numbers.

ATCTCTAGGTAATAAGTTCAGTGAAAGAGAGGAC 2.07
CAAACTAGGTCACAGAGGTCAAAGGCCGTGCGTA 8.7
CCGACTGGGGCAGAAAGGTTCCCATACCATCCGG 1.45
ATACCAAGGTGATGGTGAGGTCGTTGATACTAAC 0.223
CAAACTCGGTCAAGAGGTCAAAGTCCGCTTCCCG 4.29
TCTGCTAGGTCAGTTGGTCAGCTCACGAGCTGCC 3.21

For every item below, please supply its PBM binding z-score.
1. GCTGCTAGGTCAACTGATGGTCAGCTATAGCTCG
2. TAACCTAGGTCAGATCGGGCCAGTATACGCTATA
3. CCGACTGGGGCATAAGGTTACCAGAAGCCAGCCC

[5.21, 1.82, 3.11]

For every item below, please supply its PBM binding z-score.
1. TTTATTAGTTGAAGGGCAACCGACGAGTCCGTTT
2. ACAGACAGGTGACTGAAGGTAACTCAGCTGGACG
3. GCGACTGGGGCATCAGCTGGTTACCATAACTTAA

[0.976, 0.539, 3.64]

For every item below, please supply its PBM binding z-score.
1. TAGCATAGGTCAGATCGGGCCAGTATACGCTATA
2. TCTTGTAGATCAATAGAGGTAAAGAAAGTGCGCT
3. CCTGATAGGTCATGGTCAGCTAATCTACAGTATG
4. TCTTGTAGATCAGTAGAGGTTAAGAAAGTGCGCT
5. CCGACTGGGGCATAAGGTTACAATAAGCCAGCCC

-0.136
1.51
3.61
1.74
3.12

For every item below, please supply its PBM binding z-score.
1. ACCTCTAGGTAAAAGTTCAGTGAATCCCGAGGAT
2. CTCGAAAGGTCGGTTGAGGTGAGTATCCGGATAA
3. AGAATGCGGTTATACGTAGATCAGGGAAGAAAGT
4. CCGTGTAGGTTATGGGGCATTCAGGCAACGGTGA
5. TCAGACAGGTCAAGGTAACTCAGGTACGCAGTCG
6. CAAACTAGGTTAAGAGGTCAAAGTCCGCTTCCCG

[2.11, 0.135, -0.0715, 2.12, 2.85, 7.16]

###

Tested on: PPARg homodimer (NR concentration 180 nM)
EXPERIMENT: PBM binding z-score (relative to random genomic background probes); higher = stronger binding; sequences stand for … in GC…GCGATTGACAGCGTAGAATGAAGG
Record form. Attribute: PBM binding z-score. Fill in for each entry.
Give bare numbers.

For every item below, please supply its PBM binding z-score.
1. ACTAGCGGGCCAAGTTTGGGTCACTCAAACAAAG
2. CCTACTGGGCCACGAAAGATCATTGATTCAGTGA
3. AGTCAAAGTTCATATAGGTAACGTAAGATATGCT
4. TCTTGTAGATCAATTGAGGTTAAGAAAGTGCGCT
5. TCGAGTAGGTTAGGGGCATCCAGAATGGCGTCGA
6. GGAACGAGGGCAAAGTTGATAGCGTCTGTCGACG
7. CGTCTAAGTTCAACTAAGGTAACGTAAAGCACGC

1: 0.424; 2: 0.215; 3: 2.46; 4: 0.486; 5: 0.537; 6: 0.905; 7: 1.95

For every item below, please supply its PBM binding z-score.
1. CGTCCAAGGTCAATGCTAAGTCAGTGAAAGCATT
2. CAAACTAGGTCACCGGAAGCTCAAAGTCCGCATG
3. CAACCTAGGTCAAGAGGTCAAAGTCCGCTTCCCG
4. GGAACGAAGGCAAGTTGATAGCAGAGTTTGATGG

1. 2.4
2. 2.58
3. 5.72
4. -0.995

Tell me measured PBM binding z-score for `AGAATGAGGTTAGACGTAGATCAGGGAAGAAAGT` please.
0.901

###

System: PPARg DBDmut IVT, anti-PPARg (DBD mutation: PPARg1 K132A/R137A, NR concentration 270 nM)
EXPERIMENT: PBM binding z-score (relative to random genomic background probes); higher = stronger binding; sequences stand for … in GC…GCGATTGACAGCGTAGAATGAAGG
# PBM binding z-score >= 0.4 gives class 1, anything below gives class 0

Check this sequence for PBM binding z-score at or above 0.4: `ACTATTAGCTGACTTAGGGCAACCGATACGACGC`
class 1

Check this sequence for PBM binding z-score at or above 0.4: `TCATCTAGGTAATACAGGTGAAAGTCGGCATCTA`
class 1

Check this sequence for PBM binding z-score at or above 0.4: `TCTTGGAGATCAATAGAGGTTAAGAAAGTGCGCT`
class 0

Check this sequence for PBM binding z-score at or above 0.4: `CCTCGCAGGCCAGGGTCACTCAAGCATTTCGCTT`
class 0

Check this sequence for PBM binding z-score at or above 0.4: `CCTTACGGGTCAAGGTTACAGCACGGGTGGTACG`
class 0

Check this sequence for PBM binding z-score at or above 0.4: `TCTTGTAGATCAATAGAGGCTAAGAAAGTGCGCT`
class 0

###

Record form. Attribute: PBM binding z-score. Fill in for each entry.
System: RARg homodimer (NR concentration 270 nM)
EXPERIMENT: PBM binding z-score (relative to random genomic background probes); higher = stronger binding; sequences stand for … in GC…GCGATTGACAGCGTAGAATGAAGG
One number for each entry.

Solved cases (5 shown):
ATATGTAGGTTATCGGGGCATTCAGTTTGCGCAT 1.24
ACTTACGGGTCAACGAGGTTCTAGCACGCGTATA 4.31
TCATATAGGTAAATGGTGAAAGTCGGTGTGGTAA -0.12
GCTGCTAGGGCAACTGATGGTCAGCTAAAGCTCG 1.27
ATCGAAAGGTCGACGAAGTGAGTATACACCGTTT 3.83

For every item below, please supply its PBM binding z-score.
1. GCTAGCAAGCCATTTGGGTCACTCAATGACGGGC
2. CGTCCAAGGTCAGCACGTCAGTGAAAGCGACGTG
3. TCATATAGGTAAAAGGTGAAAGACGGTGTGGTAA
4. CGAACTTGGTCATTGACAGGACAGTGAATAGTAA
5. TTACCAAGGTTAGCTGAGGTCGTTGATCCAACTC

1: 0.621; 2: 5.75; 3: 0.857; 4: 0.884; 5: 1.41

For every item below, please supply its PBM binding z-score.
1. CGGCAAAGTTCAAGGTAACGTAACAGAAAGCAGC
2. GCTTACGGCTCAAAGGTTATAGCATGAATAGAAT
3. CCTTACGGGCCACTGACAGGTTATAGCATTTGGA
4. CAAACTAGGTCACGAAAGGTAAAAGTCGAATGAC
5. TCATATAGATAAACAGGTGAAAGTCCGTAAGTTA

6.01
0.586
0.737
5.56
0.388

For every item below, please supply its PBM binding z-score.
1. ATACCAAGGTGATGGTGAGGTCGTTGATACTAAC
2. AGCTCTAGGTAAAGTTCAGTGAAAGATCGATAGA
3. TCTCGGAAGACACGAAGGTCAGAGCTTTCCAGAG
4. CGTCCAAGGTCAGCAGGTCAATGAAAGCGACGTG
5. ATCTCTAGGTAACAAGTTCAGTCAAAGAGAGGAC

1. 0.644
2. 2.58
3. 1.67
4. 6.73
5. 1.43
